Answer each item with its documented inhibition at 10 µM.
- targetOrTestSystem: Human TRPA1 expressing CHO cells (Homo sapiens, UniProt O75762)
- Construct: expressed in transfected cells; host or cells: CHO cells (under G-418 selection)
- Sequence (O75762 whole entry): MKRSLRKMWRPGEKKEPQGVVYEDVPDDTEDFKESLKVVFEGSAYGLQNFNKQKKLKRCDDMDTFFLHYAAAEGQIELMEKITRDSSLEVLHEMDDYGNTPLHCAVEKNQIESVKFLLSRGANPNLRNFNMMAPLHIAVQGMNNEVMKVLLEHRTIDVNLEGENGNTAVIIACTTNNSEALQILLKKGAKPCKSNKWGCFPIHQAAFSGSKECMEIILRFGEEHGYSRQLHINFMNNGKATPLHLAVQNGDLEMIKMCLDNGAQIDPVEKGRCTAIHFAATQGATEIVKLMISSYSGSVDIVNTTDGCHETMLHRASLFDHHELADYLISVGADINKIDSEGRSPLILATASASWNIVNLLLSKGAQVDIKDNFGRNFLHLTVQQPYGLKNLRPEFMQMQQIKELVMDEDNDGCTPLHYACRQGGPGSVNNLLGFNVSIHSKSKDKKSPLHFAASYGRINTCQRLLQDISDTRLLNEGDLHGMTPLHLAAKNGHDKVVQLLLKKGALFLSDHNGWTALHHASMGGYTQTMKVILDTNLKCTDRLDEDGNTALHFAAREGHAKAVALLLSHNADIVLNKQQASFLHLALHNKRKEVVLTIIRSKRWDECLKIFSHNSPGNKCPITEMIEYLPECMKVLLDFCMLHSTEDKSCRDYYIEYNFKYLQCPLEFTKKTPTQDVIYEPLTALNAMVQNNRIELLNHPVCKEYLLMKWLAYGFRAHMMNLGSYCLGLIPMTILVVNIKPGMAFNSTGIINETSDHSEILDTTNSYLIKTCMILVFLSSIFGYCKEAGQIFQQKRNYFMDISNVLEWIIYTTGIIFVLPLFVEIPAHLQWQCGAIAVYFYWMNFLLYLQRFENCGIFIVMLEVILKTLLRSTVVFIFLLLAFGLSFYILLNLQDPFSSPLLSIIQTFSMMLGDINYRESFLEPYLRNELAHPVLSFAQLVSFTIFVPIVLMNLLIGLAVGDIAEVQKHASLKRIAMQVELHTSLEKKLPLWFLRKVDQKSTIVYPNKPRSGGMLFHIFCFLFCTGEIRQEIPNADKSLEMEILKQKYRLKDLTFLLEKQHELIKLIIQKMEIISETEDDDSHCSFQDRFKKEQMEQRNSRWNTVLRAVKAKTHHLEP
- measurementDescription: 45Calcium uptake assay: inhibition of AITC induced cellular uptake of radioactive calcium
- Type: cell-based
- protocolConditions: 10.0 μM test compound; AITC 30 μM; human TRPA1 CHO cells; read-out: Percentage inhibition at 10.0 μM
Provide only the numeric value, understood in %.

Task item: Consider the compound shown here: "Cc1cc(-c2csc(NC(=O)Cc3cccc4c3c(=O)n(C)c(=O)n4C)n2)ccc1Cl" What is its recorded inhibition at 10 µM?
Reply: 96.7

Task item: Consider the compound shown here: "Cn1c(=O)c2c(CC(=O)Nc3nc(-c4ccc(F)cc4C(F)(F)F)cs3)cccc2n(C)c1=O" What is its recorded inhibition at 10 µM?
Reply: 90.3

Task item: Consider the compound shown here: "Cn1c(=O)c2c(CC(=O)Nc3nc(-c4ccc(F)c(OC(F)(F)F)c4)cs3)cccc2n(C)c1=O" What is its recorded inhibition at 10 µM?
Reply: 99

Task item: Consider the compound shown here: "COc1ccc(-c2csc(NC(=O)Cc3cccc4c3c(=O)n(C)c(=O)n4C)n2)cc1" What is its recorded inhibition at 10 µM?
Reply: 75.9

Task item: Consider the compound shown here: "Cn1c(=O)c2c(CC(=O)Nc3nc(-c4ccc(C5CCCCC5)cc4)cs3)cccc2n(C)c1=O" What is its recorded inhibition at 10 µM?
Reply: 88.3

Task item: Consider the compound shown here: "Cn1c(=O)c2c(CC(=O)Nc3ccc(-c4ccc(Br)cc4)cc3)cccc2n(C)c1=O" What is its recorded inhibition at 10 µM?
Reply: 50.8

Task item: Consider the compound shown here: "Cn1c(=O)n(CC2CC2)c(=O)c2c(CC(=O)Nc3nc(-c4ccc(C(F)(F)F)c(F)c4)cs3)cccc21" What is its recorded inhibition at 10 µM?
Reply: 60.4

Task item: Consider the compound shown here: "Cn1c(=O)c2c(CC(=O)Nc3nc(-c4ccc(F)cc4F)cs3)cccc2n(C)c1=O" What is its recorded inhibition at 10 µM?
Reply: 97.9

Task item: Consider the compound shown here: "Cn1c(=O)c2c(CC(=O)Nc3nc(C4CCCCC4)cs3)cccc2n(C)c1=O" What is its recorded inhibition at 10 µM?
Reply: 60.5

Task item: Consider the compound shown here: "Cn1c(=O)c2c(CC(=O)Nc3nc(-c4ccc(OC(F)F)c(F)c4)cs3)cccc2n(C)c1=O" What is its recorded inhibition at 10 µM?
Reply: 99.2

Task item: Consider the compound shown here: "Cn1c(=O)c2c(CC(=O)Nc3nc(-c4ccc(F)c(Cl)c4)cs3)cccc2n(C)c1=O" What is its recorded inhibition at 10 µM?
Reply: 99

Task item: Consider the compound shown here: "Cn1c(=O)c2c(CC(=O)Nc3nc(-c4ccc(C(F)(F)F)c(F)c4F)cs3)cccc2n(C)c1=O" What is its recorded inhibition at 10 µM?
Reply: 99.6

Task item: Consider the compound shown here: "Cn1c(=O)c2c(CC(=O)Nc3nc(-c4cc(F)c(OC(F)F)c(F)c4)cs3)cccc2n(C)c1=O" What is its recorded inhibition at 10 µM?
Reply: 100
